experiment: Thermodynamic solubility in aqueous buffer at pH 1 at 20 degC by HPLC
Type: physicochemical
condition.details: aqueous buffer
property.name: solubility thermodynamic

Summary for this compound, O=[N+]([O-])c1cn2c(n1)OC[C@@H](OCc1ccc(-c3ccc(OC(F)(F)F)c(F)c3)cn1)C2 : solubility thermodynamic is 67 µg/mL

In plain terms, O=[N+]([O-])c1cn2c(n1)OC[C@@H](OCc1ccc(-c3ccc(F)cc3)nc1)C2 has a documented solubility thermodynamic of > 93 µg/mL

Short answer for O=[N+]([O-])c1cn2c(n1)OC[C@@H](OCc1ccc(-c3ccc(OC(F)(F)F)cc3)cc1)C2 : solubility thermodynamic was < 0.1 µg/mL

The reported measurements were obtained from ChEMBL document CHEMBL1629541.
